# system name: Probable G-protein coupled receptor 34 (Mus musculus, UniProt Q9R1K6)
# Sequence (Q9R1K6 whole entry): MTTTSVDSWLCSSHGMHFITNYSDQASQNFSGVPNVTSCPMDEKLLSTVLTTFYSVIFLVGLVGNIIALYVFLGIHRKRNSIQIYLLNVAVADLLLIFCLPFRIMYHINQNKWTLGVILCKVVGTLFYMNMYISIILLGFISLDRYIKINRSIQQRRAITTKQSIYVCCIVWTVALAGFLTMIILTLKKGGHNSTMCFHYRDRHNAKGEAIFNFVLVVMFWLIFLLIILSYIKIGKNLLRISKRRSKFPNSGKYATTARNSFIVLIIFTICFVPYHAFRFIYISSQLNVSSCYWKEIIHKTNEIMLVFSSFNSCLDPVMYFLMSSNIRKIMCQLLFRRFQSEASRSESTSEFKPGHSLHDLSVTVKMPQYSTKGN
# method summary: Agonist activity at mouse GPR34 expressed in HEK293A cells cotransfected with chimeric Galphaq/il after 1.5 hrs by alkaline phosphatase tagged-TGFalpha shedding assay
# Assay type: cell-based, HEK293-A
# protocol conditions: read-out: EC50
pEC50: −log10 of the molar value.
reported endpoint: pEC50

Record excerpt, results attached:
{"record smiles": "CCCCCCCCCCCOc1ccccc1CCC(=O)OCc1ccccc1OP(=O)(O)OC[C@H](N)C(=O)O", "system name": "Probable G-protein coupled receptor 34 (Mus musculus, UniProt Q9R1K6)", "reported endpoint": "pEC50", "reported value": 6.15}
{"record smiles": "N[C@@H](COP(=O)(O)O[C@@H]1C=CCO[C@@H]1COC(=O)CCc1ccccc1OCc1cccc(Oc2ccccc2)c1)C(=O)O", "system name": "Probable G-protein coupled receptor 34 (Mus musculus, UniProt Q9R1K6)", "reported endpoint": "pEC50", "reported value": 6.22}
{"record smiles": "N[C@@H](COP(=O)(O)O[C@@H]1CCCO[C@@H]1COC(=O)CCc1ccccc1OCc1cccc(Oc2ccccc2)c1)C(=O)O", "system name": "Probable G-protein coupled receptor 34 (Mus musculus, UniProt Q9R1K6)", "reported endpoint": "pEC50", "reported value": 6.85}

[a] CCCCCCCC/C=C\CCCCCCCC(=O)O[C@@H]1C=CCO[C@@H]1COP(=O)(O)OC[C@H](N)C(=O)O
[b] CCCCCCCCCCCOc1ccccc1CCC(=O)OC[C@H]1OCCC[C@H]1OP(=O)(O)OC[C@H](N)C(=O)O
[c] N[C@@H](COP(=O)(O)O[C@@H]1CCCO[C@@H]1COC(=O)CCc1ccccc1OCc1cccc(Oc2ccc(Cl)cc2)c1)C(=O)O
[d] N[C@@H](COP(=O)(O)OC[C@H]1OCC=C[C@H]1OC(=O)CCc1ccccc1OCc1cccc(Oc2ccccc2)c1)C(=O)O
Q. Sort by pEC50, descending. Use the labels to give the requested order.
A. c, b, d, a
